TEST SYSTEM: Histamine H3 receptor (Homo sapiens, UniProt Q9Y5N1)
Sequence (Q9Y5N1 whole entry): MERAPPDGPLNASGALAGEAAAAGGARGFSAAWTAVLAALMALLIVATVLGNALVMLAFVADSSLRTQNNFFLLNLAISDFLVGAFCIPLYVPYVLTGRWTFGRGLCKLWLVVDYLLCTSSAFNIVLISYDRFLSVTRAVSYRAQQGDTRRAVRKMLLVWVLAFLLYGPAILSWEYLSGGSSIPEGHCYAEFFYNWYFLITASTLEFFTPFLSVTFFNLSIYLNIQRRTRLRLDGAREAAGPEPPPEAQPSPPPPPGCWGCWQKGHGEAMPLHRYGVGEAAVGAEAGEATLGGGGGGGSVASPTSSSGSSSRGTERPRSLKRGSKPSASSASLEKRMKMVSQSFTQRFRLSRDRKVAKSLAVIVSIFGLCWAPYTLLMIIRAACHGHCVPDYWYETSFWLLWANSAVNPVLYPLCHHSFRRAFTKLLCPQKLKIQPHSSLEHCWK
METHOD: Displacement of [3H]-N-alpha-methylhistamine from human H3 receptor expressed in CHO-K1 cell membranes after 60 mins by microbeta2 scintillation counting analysis
pKi: −log10 of the molar value.
Each record here notes measured pKi.
TEST READOUT: pKi

CCC(C)(C)c1ccc(OCCCN2CCCC2)cc1	7.20
CCC(C)(C)c1ccc(OCCCN2C(C)CCCC2C)cc1 (stereo unspecified)	6.85
CCC(C)(C)c1ccc(OCCCN2CCCCCC2)cc1	6.53
CCC(C)(C)c1ccc(OCCCN2CCCCC2C)cc1 (stereo unspecified)	6.36
CCC(C)(C)c1ccc(OCCCN2CCC(C)CC2)cc1	6.83
